EC50 tested on PDE4D3 (Homo sapiens): recorded values

{"item smiles": "CNC(=O)c1ccc(Cc2cnc(OC(F)F)c(-c3cccc(Cl)c3)c2)cn1", "data value": "0.1 to 1 µM"}

// EC50 lookup, key: FC(F)Oc1ncc(Cc2cnc(NC3CC3)nc2)cc1-c1cccc(Cl)c1
0.1 to 1 µM

Can you look up the measured EC50 of COc1ncc(Cc2cnc(C#N)nc2)nc1-c1cccc(Cl)c1 for me?
> 10 µM

Query (molecule): COc1ncc(Cn2ccc(CO)n2)cc1-c1cccc(OC(F)F)c1 ; field requested: EC50
< 0.1 µM

Fill in the blank: the reported EC50 of COc1ncc(Cn2cnc(N)n2)cc1-c1ccnc(OC(F)F)c1 is ____.
< 0.1 µM

I have this molecule here, COc1ncc(Cc2ccc(C(C)(C)O)nc2)cc1-c1cccc(Cl)c1 , and I need its recorded EC50.
0.1 to 1 µM

Using the record for CCOc1ncc(Cc2cnc(N)nc2)cc1-c1cccc(Cl)c1 , report its EC50.
< 0.1 µM

Report EC50 for COc1ncc(Cn2cnc(CO)n2)cc1-c1ccnc(OC(F)F)c1 please.
< 0.1 µM

Entry CCOc1ncc(Cc2cnc(C#N)nc2)nc1-c1cccc(Cl)c1 : reported EC50 = ?
0.1 to 1 µM

---

Parameter EC50, tested on UniProtKB Q08499, listed per item.

Provide value of EC50 for this record tested with UniProtKB Q08499: COc1ncc(Cc2cnoc2)cc1-c1cccc(Cl)c1
100 to 1000 nM

Record COc1ncc(Cn2cnc(C3CC3)n2)nc1-c1cccc(Cl)c1 : what is its EC50 with UniProtKB Q08499?
1000 to 10000 nM

Lookup: EC50 / UniProtKB Q08499 / COc1ncc(Cn2ncnc2C(F)(F)F)cc1-c1cccc(OC(F)F)c1
100 to 1000 nM

Record lookup: for UniProtKB Q08499, what EC50 belongs to CS(=O)(=O)c1ccc(Cc2cnc(OC(F)F)c(-c3cccc(Cl)c3)c2)cc1 ?
100 to 1000 nM

Find the measured EC50: item CCOc1ncn(Cc2cnc(OC(F)F)c(-c3cccc(Cl)c3)c2)n1 , target or system UniProtKB Q08499.
100 to 1000 nM

Please tell me: EC50 of CCOc1ncc(Cn2cnc(COC)n2)cc1-c1cccc(OC(F)F)c1 , system UniProtKB Q08499?
< 100 nM

Form entry - test system: UniProtKB Q08499; read-out: EC50; compound: CCCOc1ccc(Cc2cnc(OC(F)F)c(-c3cccc(Cl)c3)c2)cn1
100 to 1000 nM

---

pEC50: −log10 of the molar value.
pEC50, PDE4D3 (Homo sapiens): measured values

Please review the following examples before continuing.
{"compound": "COc1ncc(Cn2cncn2)cc1-c1cnn(C)c1", "pEC50": "5.00 to 6.00"}
{"compound": "COc1ncc(Cc2ccc(N)nc2)cc1-c1cccc(Cl)c1", "pEC50": "> 7.00"}

# lookup: pEC50 of COC(=O)Cc1ccc(Cc2cnc(OC(F)F)c(-c3cccc(Cl)c3)c2)cc1
> 7.00

Fill blank: measured pEC50 of the compound Cc1ncn(Cc2cnc(OC(F)F)c(-c3cccc(Cl)c3)c2)n1 is ____.
> 7.00

Please look up its pEC50: COc1ncc(Cn2cc(N)cn2)nc1-c1cccc(Cl)c1
< 5.00

So what's the measured pEC50 for this one? COc1ncc(C(F)c2ccc(F)cc2)cc1-c1cccc(Cl)c1 (centres unmarked)
6.00 to 7.00

Item under review: COC(=O)c1ccc(Cc2cnc(OC)c(-c3cccc(Cl)c3)n2)cc1 . Reported pEC50?
6.00 to 7.00

Which pEC50 value belongs to CNc1ncc(Cc2cnc(OC)c(-c3cccc(Cl)c3)n2)cn1 ?
> 7.00

---

# system: PDE4D3 (Homo sapiens)
EC50 overview

Look at this molecule and give its reported EC50. COc1cccc(-c2cc(Cn3cnc(N)n3)cnc2OC)c1 [Example 221]
100 to 1000 nM

// query EC50 value for entry COc1ncc(Cn2cnc(CF)n2)nc1-c1cccc(Cl)c1 [Example 258]
1000 to 10000 nM

---

The following compounds are shown together with reported EC50 values.
# system: PDE4D3 (Homo sapiens, UniProt Q08499)
# Sequence (Q08499 1-673 isoform Q08499-2): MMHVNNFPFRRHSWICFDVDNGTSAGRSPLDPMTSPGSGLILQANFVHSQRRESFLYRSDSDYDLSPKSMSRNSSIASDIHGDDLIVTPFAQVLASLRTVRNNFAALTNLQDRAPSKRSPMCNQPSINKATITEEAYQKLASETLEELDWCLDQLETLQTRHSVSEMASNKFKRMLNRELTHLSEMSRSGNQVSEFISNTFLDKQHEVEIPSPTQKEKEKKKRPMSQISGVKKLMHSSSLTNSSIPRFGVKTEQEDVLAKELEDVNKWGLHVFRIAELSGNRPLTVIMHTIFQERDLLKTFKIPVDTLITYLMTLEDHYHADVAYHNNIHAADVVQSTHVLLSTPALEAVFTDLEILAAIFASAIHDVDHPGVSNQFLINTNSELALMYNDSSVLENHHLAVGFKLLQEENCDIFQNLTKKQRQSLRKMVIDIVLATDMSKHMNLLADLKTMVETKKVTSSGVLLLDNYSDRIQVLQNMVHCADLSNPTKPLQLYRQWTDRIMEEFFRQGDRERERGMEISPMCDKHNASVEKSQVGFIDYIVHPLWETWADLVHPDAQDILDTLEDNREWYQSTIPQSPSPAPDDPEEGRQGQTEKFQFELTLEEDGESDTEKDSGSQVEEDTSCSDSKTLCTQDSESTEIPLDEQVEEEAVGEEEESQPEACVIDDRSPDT

Known results for compounds:
{"item smiles": "COc1ncc(Cn2cncn2)cc1-c1cccc(C#N)c1", "experimental endpoint": "EC50", "data value": "100 to 1000 nM"}
{"item smiles": "CC(C)Oc1ncc(Cn2cncn2)cc1-c1cccc(Cl)c1", "experimental endpoint": "EC50", "data value": "1000 to 10000 nM"}
{"item smiles": "COc1ncc(Cn2cncn2)nc1-c1cccc(Cl)c1", "experimental endpoint": "EC50", "data value": "100 to 1000 nM"}
{"item smiles": "CCOc1ncc(Cn2cnc(CO)n2)cc1-c1cccc(Cl)c1", "experimental endpoint": "EC50", "data value": "< 100 nM"}

Could you now consider this next compound?
Which measured EC50 value corresponds to COc1ncc(Cc2ccc(C(N)=O)nc2)cc1-c1cccc(Cl)c1 ?
100 to 1000 nM

---

Lab note: pEC50 readings collected with PDE4D3 (Homo sapiens) for the following compounds.
pEC50: −log10 of the molar value.

{"compound": "COc1ncc(Cn2cc(C#N)cn2)cc1-c1cccc(Cl)c1 [Example 170]", "pEC50": "6.00 to 7.00"}
{"compound": "COc1ncc(Cn2cnc(C3CC3)n2)cc1-c1cccc(Cl)c1 [Example 147]", "pEC50": "6.00 to 7.00"}
{"compound": "N#Cc1ncc(Cc2cnc(OC(F)F)c(-c3cccc(Cl)c3)c2)cn1 [Example 35]", "pEC50": "5.00 to 6.00"}
{"compound": "COc1ncn(Cc2cnc(OC(F)F)c(-c3cccc(Cl)c3)c2)n1 [Example 214]", "pEC50": "6.00 to 7.00"}
{"compound": "COc1ncc(Cc2cccnc2)cc1-c1cccc(Cl)c1 [Example 64]", "pEC50": "6.00 to 7.00"}

Any idea what pEC50 came out for COc1ncc(Cn2cc(C)cn2)nc1-c1cccc(Cl)c1 [Example 184] on PDE4D3 (Homo sapiens)?
5.00 to 6.00

API: value(readout=pEC50, system=PDE4D3 (Homo sapiens)) for record Cc1ncc(Cc2cnc(OC(F)F)c(-c3cccc(Cl)c3)c2)s1 [Example 73]
> 7.00

// lookup pEC50 | system=PDE4D3 (Homo sapiens) | key= COc1ncc(Cc2cnc(C(N)=O)nc2)cc1-c1cccc(OC(F)F)c1 [Example 121]
6.00 to 7.00

Observed pEC50 on PDE4D3 (Homo sapiens) for COC(=O)c1ncn(Cc2cnc(OC)c(-c3cccc(OC(F)F)c3)n2)n1 [Example 196] , please.
5.00 to 6.00

Missing value: pEC50, PDE4D3 (Homo sapiens), entry CCOC(=O)c1cnn(Cc2cnc(OC)c(-c3cccc(Cl)c3)c2)c1 [Example 169] . Fill in?
5.00 to 6.00

Could you share what pEC50 was measured for COc1ncc(Cn2cnc(C)n2)nc1-c1cccc(Cl)c1 [Example 132] , tested on PDE4D3 (Homo sapiens)?
6.00 to 7.00

Test system PDE4D3 (Homo sapiens); read-out pEC50; what value for COc1cc(-c2cc(Cc3cnc(N)nc3)cnc2OC(F)F)ccn1 [Example 46] ?
> 7.00

API: value(readout=pEC50, system=PDE4D3 (Homo sapiens)) for record COc1ncc(Cn2cnc(C(F)(F)F)n2)cc1-c1cccc(OC(F)F)c1 [Example 159]
6.00 to 7.00

What pEC50 appears in the records for this compound with PDE4D3 (Homo sapiens)? FC(F)Oc1ncc(Cc2ccccn2)cc1-c1cccc(Cl)c1 [Example 109]
6.00 to 7.00

Which measured pEC50 belongs to COc1ncc(Cc2ccnc(C(N)=O)c2)cc1-c1cccc(Cl)c1 [Example 63] , tested on PDE4D3 (Homo sapiens)?
5.00 to 6.00

Provide value of pEC50 for this record tested with PDE4D3 (Homo sapiens): COc1cccc(-c2cc(Cn3cnc(N)n3)cnc2OC(F)F)c1 [Example 227]
6.00 to 7.00

Provide value of pEC50 for this record tested with PDE4D3 (Homo sapiens): COc1ncc(Cn2cnc(CO)n2)nc1-c1cccc(Cl)c1 [Example 199]
5.00 to 6.00

Which pEC50 is reported with PDE4D3 (Homo sapiens) for this entry: CCOc1ncc(Cc2cnc(C(N)=O)nc2)cc1-c1ccnc(OC(F)F)c1 [Example 122] ?
> 7.00

Request: pEC50, test system PDE4D3 (Homo sapiens), entry COc1ncc(Cn2cncn2)cc1-c1cccc(S(C)(=O)=O)c1 [Example 9]
< 5.00

---

# system: PDE4D3 (Homo sapiens)
experimental endpoint: EC50

{"molecule": "COc1ncc(Cc2ccc(C(N)=O)cc2)nc1-c1cccc(Cl)c1 [Example 113]", "data value": "100 to 1000 nM"}
{"molecule": "Nc1ccc(Cc2cnc(OC(F)F)c(-c3cccc(Cl)c3)c2)cn1 [Example 33]", "data value": "< 100 nM"}
{"molecule": "COc1ncc(Cc2cnc(N)nc2)nc1-c1cccc(Cl)c1 [Example 87]", "data value": "< 100 nM"}
{"molecule": "COc1ncc(Cc2ccc(C(=O)O)cc2)cc1-c1cccc(Cl)c1 [Example 21]", "data value": "100 to 1000 nM"}
{"molecule": "COCc1ncnn1Cc1cnc(OC(F)F)c(-c2cccc(Cl)c2)c1 [Example 158]", "data value": "1000 to 10000 nM"}
{"molecule": "CCOc1ncc(Cn2ncnc2C(F)(F)F)cc1-c1cccc(OC(F)F)c1 [Example 164]", "data value": "100 to 1000 nM"}
{"molecule": "COc1ncc(C(C)(O)c2ccc(F)cc2)cc1-c1cccc(Cl)c1 (stereo not drawn) [Example 15]", "data value": "1000 to 10000 nM"}
{"molecule": "COc1ncc(Cn2cnc(C)n2)cc1-c1cccc(OC(F)F)c1 [Example 155]", "data value": "< 100 nM"}

Moving on to the next molecule.
Please look up its EC50: CCOc1ncc(Cn2ccc(C(N)=O)n2)cc1-c1cccc(Cl)c1 [Example 168]
< 100 nM
